Source listed as ChEMBL document CHEMBL4390673.

TEST METHOD NOTES: Selectivity index, ratio of IC50 for African green monkey Vero cells to MIC=
Type: toxicity
ASSAY CONDITIONS: read-out: Ratio IC50

COMPOUND SMILES	selectivity ratio
Cc1cc(O)c(CN2CCCCC2)c2c1oc1c3ccccc3oc(=O)c12	64
O=c1oc2cc(O)ccc2c2oc3ccc(O)c(CN4CCCCC4)c3c12	1024
O=c1oc2ccc(O)cc2c2oc3ccc(O)c(CN4CCCCC4)c3c12	8
